targetDesc: GABA-A receptor; alpha-1/beta-3/gamma-2 (Homo sapiens, UniProt P14867+P18507+P28472)
Sequence (P14867 whole entry): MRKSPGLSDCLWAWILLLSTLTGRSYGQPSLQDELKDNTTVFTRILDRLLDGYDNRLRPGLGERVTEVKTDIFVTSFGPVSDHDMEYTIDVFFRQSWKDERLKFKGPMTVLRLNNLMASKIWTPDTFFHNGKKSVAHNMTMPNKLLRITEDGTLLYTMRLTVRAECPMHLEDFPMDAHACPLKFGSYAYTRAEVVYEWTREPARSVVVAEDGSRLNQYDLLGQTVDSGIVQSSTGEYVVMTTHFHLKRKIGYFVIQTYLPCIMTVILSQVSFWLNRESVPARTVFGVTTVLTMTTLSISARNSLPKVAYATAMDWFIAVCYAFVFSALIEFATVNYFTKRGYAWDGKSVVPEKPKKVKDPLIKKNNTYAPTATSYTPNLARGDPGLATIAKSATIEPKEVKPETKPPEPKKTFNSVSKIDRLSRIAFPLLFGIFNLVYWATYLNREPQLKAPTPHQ
Sequence (P18507 whole entry): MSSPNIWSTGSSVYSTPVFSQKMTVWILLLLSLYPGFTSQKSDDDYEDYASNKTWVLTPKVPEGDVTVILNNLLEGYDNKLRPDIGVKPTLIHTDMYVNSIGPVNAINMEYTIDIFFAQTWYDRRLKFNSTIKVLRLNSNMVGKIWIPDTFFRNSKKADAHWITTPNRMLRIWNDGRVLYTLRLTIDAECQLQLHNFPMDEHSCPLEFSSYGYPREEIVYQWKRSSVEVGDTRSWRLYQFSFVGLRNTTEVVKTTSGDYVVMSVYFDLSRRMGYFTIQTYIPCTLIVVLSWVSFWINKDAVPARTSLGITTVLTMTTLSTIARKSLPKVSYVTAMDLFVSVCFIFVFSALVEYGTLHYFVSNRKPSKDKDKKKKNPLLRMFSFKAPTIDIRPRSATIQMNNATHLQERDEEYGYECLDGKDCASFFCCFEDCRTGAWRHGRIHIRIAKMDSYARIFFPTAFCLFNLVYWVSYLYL
Sequence (P28472 whole entry): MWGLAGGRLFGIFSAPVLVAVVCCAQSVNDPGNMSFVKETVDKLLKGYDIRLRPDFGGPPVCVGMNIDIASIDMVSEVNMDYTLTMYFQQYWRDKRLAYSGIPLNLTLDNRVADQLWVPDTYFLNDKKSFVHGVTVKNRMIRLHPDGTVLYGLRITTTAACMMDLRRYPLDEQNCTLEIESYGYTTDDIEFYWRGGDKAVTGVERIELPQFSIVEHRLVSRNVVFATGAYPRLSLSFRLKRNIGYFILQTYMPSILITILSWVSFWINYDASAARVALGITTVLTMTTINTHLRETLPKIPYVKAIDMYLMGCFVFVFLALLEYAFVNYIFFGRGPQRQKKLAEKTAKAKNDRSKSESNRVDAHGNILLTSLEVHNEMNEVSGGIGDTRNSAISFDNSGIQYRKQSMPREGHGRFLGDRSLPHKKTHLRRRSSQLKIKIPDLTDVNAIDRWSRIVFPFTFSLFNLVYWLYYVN
assayName: Binding affinity for human recombinant gamma-aminobutyric-acid (GABA) A receptor alpha-1-beta-3-gamma-2
Assay type: protein-complex assay
pKi: −log10 of the molar value.
measuredQuantity: pKi

{"columns": ["lineNotation", "endpointValue"],
 "data": [
  ["CCOC(=O)c1[nH]cc2nc3ccc(OCc4ccc5ccccc5c4)cc3c-2c1COC", 7.81],
  ["c1ccc(COc2ccc3c(c2)[nH]c2c3ncc3[nH]c4ccccc4c32)cc1", 6.36],
  ["COC(=O)c1cc2c3cc(SC#N)ccc3nc-2c[nH]1", 8.47],
  ["c1ccc2c(c1)[nH]c1cnc3c(nc4ccccn43)c12", 6.98],
  ["c1ccc2c(c1)[nH]c1c2ncc2[nH]c3ccccc3c21", 8.96],
  ["C#Cc1ccc2c(c1)C(c1ccccc1)=NCC(=O)N2C", 7.12]
]}

###

Let's look at some compounds and their measured Ki.
targetDesc: GABA-A receptor; alpha-6/beta-3/gamma-2 (Homo sapiens, UniProt P18507+P28472+Q16445)
assayName: Binding affinity for human recombinant gamma-aminobutyric-acid (GABA) A receptor alpha-6-beta-3-gamma-2
measuredQuantity: Ki

{"columns": ["lineNotation", "endpointValue"],
 "data": [
  ["O=C1CN=C(c2cccs2)c2cc(F)ccc2N1", "> 300 nM"],
  ["CN1C(=O)CN=C(c2ccccc2)c2cc(C#N)ccc21", "> 3000 nM"],
  ["CN1C(=O)CN=C(c2cccs2)c2cc(Cl)ccc21", "> 300 nM"],
  ["CN1C(=O)CN=C(C2CCC2)c2cc(F)ccc21", "> 300 nM"],
  ["CCCOc1ccc2c(c1)c1c(COC)c(C(=O)OCC)ncc1n2C", "> 10000 nM"],
  ["CCc1c(C(=O)NN)[nH]cc2nc3cc(OC)c(OC)cc3c1-2", "> 3000 nM"],
  ["Clc1cc2c(cn1)[nH]c1ccccc12", "> 10000 nM"],
  ["CN1C(=O)CN=C(c2ccsc2)c2cc(Cl)ccc21", "> 300 nM"]
]}

###

targetDesc: GABA-A receptor; alpha-2/beta-3/gamma-2 (Homo sapiens, UniProt P18507+P28472+P47869)
Sequence (P18507 whole entry): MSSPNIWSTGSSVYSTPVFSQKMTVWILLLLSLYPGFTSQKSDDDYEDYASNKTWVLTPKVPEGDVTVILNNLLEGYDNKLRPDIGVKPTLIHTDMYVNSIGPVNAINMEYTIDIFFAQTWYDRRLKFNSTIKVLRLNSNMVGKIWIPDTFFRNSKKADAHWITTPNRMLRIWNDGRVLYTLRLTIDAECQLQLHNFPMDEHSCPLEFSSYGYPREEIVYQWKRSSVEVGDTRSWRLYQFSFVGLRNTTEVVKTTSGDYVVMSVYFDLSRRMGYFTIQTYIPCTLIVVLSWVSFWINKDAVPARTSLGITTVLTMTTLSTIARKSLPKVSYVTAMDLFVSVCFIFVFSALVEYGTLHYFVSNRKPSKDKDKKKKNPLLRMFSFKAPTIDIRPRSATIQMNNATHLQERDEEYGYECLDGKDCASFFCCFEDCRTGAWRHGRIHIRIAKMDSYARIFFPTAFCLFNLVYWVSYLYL
Sequence (P28472 whole entry): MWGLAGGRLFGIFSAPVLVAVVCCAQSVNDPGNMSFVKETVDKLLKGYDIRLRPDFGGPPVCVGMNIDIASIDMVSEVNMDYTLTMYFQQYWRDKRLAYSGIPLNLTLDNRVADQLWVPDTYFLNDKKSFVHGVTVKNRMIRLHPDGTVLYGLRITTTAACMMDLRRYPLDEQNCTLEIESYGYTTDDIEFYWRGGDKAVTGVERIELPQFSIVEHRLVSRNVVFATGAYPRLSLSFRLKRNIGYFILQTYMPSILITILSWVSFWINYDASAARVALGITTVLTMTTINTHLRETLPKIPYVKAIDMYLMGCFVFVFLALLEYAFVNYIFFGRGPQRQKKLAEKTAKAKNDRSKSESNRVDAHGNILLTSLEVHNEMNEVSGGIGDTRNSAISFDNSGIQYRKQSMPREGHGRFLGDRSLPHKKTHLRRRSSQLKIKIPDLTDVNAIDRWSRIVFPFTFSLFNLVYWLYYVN
Sequence (P47869 whole entry): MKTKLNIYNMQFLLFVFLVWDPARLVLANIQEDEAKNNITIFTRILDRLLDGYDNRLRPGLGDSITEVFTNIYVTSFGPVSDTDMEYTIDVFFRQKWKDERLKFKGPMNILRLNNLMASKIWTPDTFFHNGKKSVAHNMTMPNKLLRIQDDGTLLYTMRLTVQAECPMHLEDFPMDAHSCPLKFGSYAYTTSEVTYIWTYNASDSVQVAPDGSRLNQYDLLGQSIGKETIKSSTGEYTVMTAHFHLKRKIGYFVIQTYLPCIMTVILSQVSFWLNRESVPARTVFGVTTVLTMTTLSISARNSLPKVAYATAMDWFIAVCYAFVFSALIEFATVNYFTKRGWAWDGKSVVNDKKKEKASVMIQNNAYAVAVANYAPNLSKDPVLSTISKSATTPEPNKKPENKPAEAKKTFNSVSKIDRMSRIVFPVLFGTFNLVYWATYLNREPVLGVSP
assayName: Binding affinity to human recombinant gamma-aminobutyric-acid (GABA) A receptor alpha-2-beta-3-gamma-2
measuredQuantity: log10(Ki) (log10 of the value in nM)

{"columns": ["molecule", "measuredQuantity", "endpointValue"],
 "data": [
  ["C#Cc1ccc2ncc3c(=O)n(-c4ccccc4)[nH]c3c2c1", "log10(Ki)", -1.22],
  ["C[Si](C)(C)C#Cc1ccc(-n2[nH]c3c(cnc4ccccc43)c2=O)cc1", "log10(Ki)", 0.57],
  ["CC(C)c1nc(-c2ncn3c2CN(C)C(=O)c2c(Cl)cccc2-3)no1", "log10(Ki)", 0.32],
  ["O=c1c2c[nH]c3ccc(Br)cc3c-2nn1-c1ccccc1", "log10(Ki)", -1.10],
  ["CCOC(=O)c1ncn2c1CN(C)C(=O)c1ccccc1-2 [RO-147437]", "log10(Ki)", 0.30],
  ["O=C1CN=C(c2ccccc2[N+](=O)[O-])c2cc(Br)ccc2N1", "log10(Ki)", 1.49],
  ["O=C1CN=C(c2cccs2)c2cc(F)ccc2N1", "log10(Ki)", 2.53],
  ["COC(=O)c1cc2c(cn1)[nH]c1ccc(NCc3ccccc3)cc12", "log10(Ki)", 1.48],
  ["c1ccc2c(c1)[nH]c1cnc3c4cccnc4[nH]c3c12", "log10(Ki)", 1.06],
  ["c1ccc2c(c1)[nH]c1c2ncc2[nH]c3ccccc3c21", "log10(Ki)", 0.08],
  ["c1ccc(COc2ccc3c(c2)[nH]c2c3ncc3[nH]c4ccccc4c32)cc1", "log10(Ki)", 3.48],
  ["CN1C(=O)CN=C(c2cccs2)c2cc(Cl)ccc21", "log10(Ki)", 1.12],
  ["COC(=O)c1cc2c3cc(NCc4ccc5ccccc5c4)ccc3nc-2c[nH]1", "log10(Ki)", 2.31],
  ["C#Cc1ccc(-n2[nH]c3c(cnc4ccccc43)c2=O)cc1", "log10(Ki)", -1.52],
  ["CN1Cc2c(C(=O)OC(C)(C)C)ncn2-c2ccc(N=[N+]=[N-])cc2C1=O", "log10(Ki)", 1.34],
  ["c1ccc2c(c1)[nH]c1cnc3c(nc4ccccn43)c12", "log10(Ki)", 2.36],
  ["O=[N+]([O-])c1ccc2[nH]c3cnc([N+](=O)[O-])cc3c2c1", "log10(Ki)", 1.92]
]}
